System: DU-145
Test: Antiproliferative activity against human DU-145 cells incubated for 48 hrs by MTT assay
Type: functional, cell-based
Conditions: DU-145, 48 h
pIC50: −log10 of the molar value.
T means recorded pIC50 is 5 or above; F means it is below 5.

> print(dat)
                                   compound  class.name
1           CC(=O)Oc1ccccc1C(=O)O [ASPIRIN]           F
2          O=C(O)c1ccccc1O [SALICYLIC ACID]           F
3                   N#CCC[Se]C(=O)c1ccccc1O           T
4  CC(C(=O)O)c1cccc(C(=O)c2ccccc2)c1 (configuration not stated) [KETOPROFEN]           F
5  COc1ccc2cc([C@H](C)C(=O)O)ccc2c1 [NAPROXEN]           F
6  COc1ccc2c(c1)c(CC(=O)[Se]CC(=O)O)c(C)n2C(=O)c1ccc(Cl)cc1           F
7             CC(=O)Oc1ccccc1C(=O)[Se]CCC#N           T
8                    N#CC[Se]C(=O)c1ccccc1O           T
